Measured TGI by item
Test system: UACC-62 melanoma
Measurement Notes: NCI tumour cell line growth inhibition, 48 h

Worked examples follow.
1) COc1cccc(-c2cc(=O)c3cc4c(cc3[nH]2)OCO4)c1 = > 100 µM
2) c1ccc2c(c1)NCc1cc3ccccc3nc1O2 = > 100 µM
3) Cn1cc(-c2cc(-c3cn(C)c4ccc(Cl)cc34)[nH]n2)c2cc(Cl)ccc21 = 3.35 µM
4) COc1ccc(-c2c(-c3ccc(OC)cc3)n3c(=O)n(C)c(=O)n23)cc1 = > 100 µM
5) O=C1CCC[C@H]2O[C@@H](COC(=O)c3ccccc3)C[C@H]2O1 = > 100 µM

Measured TGI, "CCOC(=O)C1Cc2ccc3c4c(ccc(c24)C1)CC(C(=O)OCC)C3" : > 100 µM

Measured TGI, "COc1ccc(-c2oc3cc(OC)c(OC)c(O)c3c(=O)c2OC)cc1" : 84.4 µM

Measured TGI, "CCOc1cccc2c1N[S@@](=O)S2" : > 100 µM

Measured TGI, "Cc1ccc2nc3n[nH]c(N)c3nc2c1" : > 100 µM

Measured TGI, "CCOc1cc(/C=C/C(=O)C(C(=O)/C=C/c2ccc(OC(=O)CNc3nc4ccccc4[nH]3)c(OCC)c2)C(=O)CNc2nc3ccccc3[nH]2)ccc1OC(=O)CNc1nc2ccccc2[nH]1" : 3.98 µM
